- study_target: Human mTOR (FLAG-TOR) (Homo sapiens, UniProt P42345)
- Construct: FLAG
- test_method_notes: Human mTOR kinase assay with purified enzyme, DELFIA format
- Assay type: biochemical
pIC50: −log10 of the molar value.

structure_string: Cn1ncc2c(N3CC4CCC(C3)O4)nc(-c3ccc(NC(=O)Nc4ccc(N)cc4)cc3)nc21
pIC50: 9.45
--
structure_string: Nc1ccc(-c2nc(N3CC4CCC(C3)O4)c3cnn(CCO)c3n2)cc1
pIC50: 6.84
--
structure_string: CCNC(=O)Nc1ccc(-c2nc(N3CC4CCC(C3)O4)c3cnn(C4CCN(Cc5cccnc5)CC4)c3n2)cc1
pIC50: 9.51
--
structure_string: CCn1ncc2c(N3CC4CCC(C3)O4)nc(-c3ccc(NC(=O)NCC4CCN(C)CC4)cc3)nc21
pIC50: 6.64
--
structure_string: Cn1ncc2c(N3CC4CCC(C3)O4)nc(-c3ccc(NC(=O)Nc4ccccc4)cc3)nc21
pIC50: 9.18
--
structure_string: N#CCCn1ncc2c(N3CC4CCC(C3)O4)nc(-c3ccc(NC(=O)NC4CC4)cc3)nc21
pIC50: 8.87
--
structure_string: O=C(Nc1ccc(-c2nc(N3CC4CCC(C3)O4)c3cnn(CCO)c3n2)cc1)Nc1ccc(N2CCOCC2)nc1
pIC50: 9.15
--
structure_string: O=C(NCCF)Nc1ccc(-c2nc(N3CC4CCC(C3)O4)c3cnn(CC(F)(F)F)c3n2)cc1
pIC50: 9.66

* * *

- study_target: Human mTOR (FLAG-TOR) (Homo sapiens, UniProt P42345)
- Construct: FLAG
- test_method_notes: Human mTOR kinase assay with purified enzyme, DELFIA format
- Format: biochemical
- Protocol: Enzymes are first diluted in kinase assay buffer (10 mM HEPES (pH 7.4), 50 mM NaCl, 50 mM β-glycerophosphate, 10 mM MnCl2, 0.5 mM DTT, 0.25 mM microcystin LR, and 100 mg/mL BSA). To each well, 12 μL of the diluted enzyme is mixed briefly with 0.5 μL test inhibitor or control vehicle dimethylsulfoxide (DMSO). […] 100 μL of DELFIA Enhancement solution is added to each well and the plates are read in a PerkinElmer Victor model plate reader. […]
# key: entry, value: IC50
readout_label: IC50 (nM)

compound: CN1CCN(c2ccc(NC(=O)Nc3ccc(-c4nc(N5CC6CCC(C5)O6)c5cnn(C)c5n4)cc3)cc2)CC1 [Example 236]
data_value: 0.445
//
compound: COC(=O)N1CCC(n2ncc3c(N4CC5CCC(C4)O5)nc(-c4ccc(NC(=O)NCCN(C)C)cc4)nc32)CC1 [Example 169]
data_value: 40.5
//
compound: O=C(Nc1ccc(CCO)cc1)Nc1ccc(-c2nc(N3C4CCC3COC4)c3cnn(CC(F)(F)F)c3n2)cc1 [Example 272]
data_value: 0.106
//
compound: CC(C)(C)OC(=O)N1CCC(n2ncc3c(N4CC5CCC(C4)O5)nc(-c4ccc(NC(=O)Nc5cccnc5)cc4)nc32)CC1 [Example 24]
data_value: 0.39
//
compound: O=C(Nc1ccncc1)Nc1ccc(-c2nc(N3CC4CCC(C3)O4)c3cnn(Cc4ccccc4)c3n2)cc1 [Example 79]
data_value: 1.9
//
compound: CNC(=O)Nc1ccc(-c2nc(N3CC4CCC(C3)O4)c3cnn(C4CCC(=O)CC4)c3n2)cc1 [Example 63]
data_value: 0.23
//
compound: CC(C)(C)n1ncc2c(N3CC4CCC(C3)O4)nc(-c3ccc(NC(=O)OCCO)cc3)nc21 [Example 98]
data_value: 0.98

* * *

- study_target: Human mTOR (FLAG-TOR) (Homo sapiens, UniProt P42345)
- Construct: FLAG
- test_method_notes: Human mTOR kinase assay with purified enzyme, DELFIA format
- Format: biochemical
pIC50: −log10 of the molar value.
# key: entry, value: pIC50

compound: O=C(Nc1ccc(OCCO)cc1)Nc1ccc(-c2nc(N3CC4CCC(C3)O4)c3cnn(CC(F)(F)F)c3n2)cc1 [Example 263]
value_relation_sign: =
pIC50: 9.67
--
compound: CC(C)C(=O)N1CCC(n2ncc3c(N4CC5CCC(C4)O5)nc(-c4ccc(NC(=O)NC5CC5)cc4)nc32)CC1 [Example 86]
value_relation_sign: =
pIC50: 9.18
--
compound: COC(=O)N1CCC(n2ncc3c(N4CC5CCC(C4)O5)nc(-c4ccc(NC(=O)NC5CC5)cc4)nc32)CC1 [Example 12]
value_relation_sign: =
pIC50: 9.28
--
compound: CCn1ncc2c(N3CC4CCC(C3)O4)nc(-c3ccc(NC(=O)Nc4ccc(CO)cc4)cc3)nc21 [Example 182]
value_relation_sign: =
pIC50: 9.92
--
compound: O=C(Nc1ccc(-c2nc(N3CC4CCC(C3)O4)c3cnn(C4CCCCO4)c3n2)cc1)Nc1cccnc1 (centres unmarked) [Example 90]
value_relation_sign: =
pIC50: 9.41
--
compound: O=C(Nc1ccc(-c2nc(N3C[C@@H]4C[C@H]3CO4)c3cnn(CC(F)(F)F)c3n2)cc1)OCCO [Example 291]
value_relation_sign: =
pIC50: 8.05
--
compound: CC(C)C(=O)N1CCC(n2ncc3c(N4CC5CCC(C4)O5)nc(-c4ccc(N)cc4)nc32)CC1 [Example 80]
value_relation_sign: =
pIC50: 7.00
--
compound: O=C(Nc1ccc(-c2nc(N3CC4CCC(C3)O4)c3cnn(CCO)c3n2)cc1)Nc1cccnc1 [Example 199]
value_relation_sign: =
pIC50: 9.34
--
compound: COC(=O)N1CCC(n2ncc3c(N4CC5CCC(C4)O5)nc(-c4ccc(NC(=O)Nc5ccc(CCO)cc5)cc4)nc32)CC1 [Example 165]
value_relation_sign: =
pIC50: 10.02
--
compound: COC(=O)N1CCC(n2ncc3c(N4CC5CCC(C4)O5)nc(-c4ccc(NC(=O)OCCN5CCOCC5)cc4)nc32)CC1 [Example 117]
value_relation_sign: <
pIC50: 6.10
--
compound: O=C(Nc1ccncc1)Nc1ccc(-c2nc(N3CC4CCC(C3)O4)c3cnn(CC(F)(F)F)c3n2)cc1 [Example 104]
value_relation_sign: =
pIC50: 9.80
--
compound: N#CCCn1ncc2c(N3CC4CCC(C3)O4)nc(-c3ccc(NC(=O)Nc4ccncc4)cc3)nc21 [Example 217]
value_relation_sign: =
pIC50: 9.77
--
compound: N#CCCn1ncc2c(N3CC4CCC(C3)O4)nc(-c3ccc(NC(=O)Nc4cccnc4)cc3)nc21 [Example 216]
value_relation_sign: =
pIC50: 9.59
--
compound: CCn1ncc2c(N3CC4CCC(C3)O4)nc(-c3ccc(NC(=O)NC)cc3)nc21 [Example 40]
value_relation_sign: =
pIC50: 9.24
--
compound: O=C(Nc1ccc(CO)cc1)Nc1ccc(-c2nc(N3CC4CCC(C3)O4)c3cnn(CCF)c3n2)cc1 [Example 250]
value_relation_sign: =
pIC50: 10.07
--
compound: CNC(=O)Nc1ccc(-c2nc(N3CC4CCC(C3)O4)c3cnn(C4CCC5(CC4)OCCCO5)c3n2)cc1 [Example 151]
value_relation_sign: =
pIC50: 8.92
--
compound: CCn1ncc2c(N3CC4CCC(C3)O4)nc(-c3ccc(NC(=O)NCCNC)cc3)nc21 [Example 174]
value_relation_sign: =
pIC50: 8.33
--
compound: CN1CCN(c2ccc(NC(=O)Nc3ccc(-c4nc(N5CC6CCC(C5)O6)c5cnn(CC(F)(F)F)c5n4)cc3)cn2)CC1 [Example 262]
value_relation_sign: =
pIC50: 9.29
--
compound: Cn1ncc2c(N3CC4CCC(C3)O4)nc(-c3ccc(NC(=O)Nc4ccc(S(C)(=O)=O)cc4)cc3)nc21 [Example 239]
value_relation_sign: =
pIC50: 9.97
--
compound: O=C(Nc1ccncc1)Nc1ccc(-c2nc(N3CC4CCC(C3)O4)c3cnn(C4CCN(Cc5cccnc5)CC4)c3n2)cc1 [Example 19]
value_relation_sign: =
pIC50: 9.85
--
compound: CCn1ncc2c(N3CC4CCC(C3)O4)nc(-c3ccc(NC(=O)Nc4ccc(OCCN5CCOCC5)nc4)cc3)nc21 [Example 283]
value_relation_sign: =
pIC50: 9.01
--
compound: CNC(=O)Nc1ccc(-c2nc(N3C4CCC3COC4)c3cnn(CC(F)(F)F)c3n2)cc1 [Example 267]
value_relation_sign: =
pIC50: 9.25
--
compound: COC(=O)Nc1ccc(-c2nc(N3CC4CCC(C3)O4)c3cnn(CCO)c3n2)cc1 [Example 192]
value_relation_sign: =
pIC50: 7.59
--
compound: O=C(Nc1ccncc1)Nc1ccc(-c2nc(N3CC4CCC(C3)O4)c3cnn(CCO)c3n2)cc1 [Example 200]
value_relation_sign: =
pIC50: 9.41
--
compound: CCn1ncc2c(N3CC4CCC(C3)O4)nc(-c3ccc(NC(=O)NCC(=O)NCCN(C)C)cc3)nc21 [Example 278]
value_relation_sign: =
pIC50: 7.38
--
compound: CCn1ncc2c(N3CC4CCC(C3)O4)nc(-c3ccc(NC(=O)Nc4ccc(OCCO)nc4)cc3)nc21 [Example 282]
value_relation_sign: =
pIC50: 9.52
--
compound: CN1CCN(c2ccc(NC(=O)Nc3ccc(-c4nc(N5CC6CCC(C5)O6)c5cnn(CCC#N)c5n4)cc3)cc2)CC1 [Example 220]
value_relation_sign: =
pIC50: 9.32
--
compound: O=C(NCCO)Nc1ccc(-c2nc(N3CC4CCC(C3)O4)c3cnn(CCO)c3n2)cc1 [Example 196]
value_relation_sign: =
pIC50: 8.66
--
compound: CCn1ncc2c(N3CC4CCC(C3)O4)nc(-c3ccc(NC(=O)Nc4ccc(OCCO)cc4)cc3)nc21 [Example 281]
value_relation_sign: =
pIC50: 8.97
